Where do these numbers come from? They come from patent US12319672B2.

molecular target: human Gal-1 (hGal-1); assay: Competitive binding assay: binding of biotinylated hGal-1 to microplate-adsorbed asialofetuin (ASF); conditions: Activities on hGal-1; mean values of several measurements
Sequence (P09382 2-135 limits assumed): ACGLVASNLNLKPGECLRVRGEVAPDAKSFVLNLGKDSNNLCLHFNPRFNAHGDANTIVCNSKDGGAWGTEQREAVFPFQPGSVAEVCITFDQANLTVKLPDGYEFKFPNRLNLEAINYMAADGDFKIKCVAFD
Label key: fulfilled means IC50 under 800 nM; not fulfilled means IC50 of 800 nM or more.

Here's what some known entries look like.
>  <compound>
CO[C@@H]1[C@@H](n2cc(-c3cc(F)c(F)c(F)c3)nn2)[C@@H](O)[C@@H](CO)O[C@@H]1Cc1cc(C2CCN(S(=O)(=O)N3CCCC3)CC2)on1

>  <target.or.test.system>
human Gal-1 (hGal-1)

>  <category.label>
fulfilled

$$$$
>  <compound>
CCOC(=O)N1CCC(c2cc(C[C@H]3O[C@H](CO)[C@H](O)[C@H](n4cc(-c5ccc(Cl)c(F)c5F)nn4)[C@H]3OC)no2)CC1

>  <target.or.test.system>
human Gal-1 (hGal-1)

>  <category.label>
not fulfilled

$$$$

Request: I wonder whether CO[C@@H]1[C@@H](n2cc(-c3cc(F)c(F)c(F)c3)nn2)[C@@H](O)[C@@H](CO)O[C@@H]1Cc1cc(C2CCNCC2)on1 has IC50 below 800 nM. Can you tell?
Response: not fulfilled

Request: Given the entry CN=S1(=O)CCC(n2cc(C[C@H]3O[C@H](CO)[C@H](O)[C@H](n4cc(-c5cc(F)c(F)c(F)c5)nn4)[C@H]3OC)nn2)CC1 (stereo partly drawn) , would its reported IC50 be below 800 nM?
Response: fulfilled

Request: Please check: IC50 for CO[C@@H]1[C@@H](n2cc(-c3cc(F)c(F)c(F)c3)nn2)[C@@H](O)[C@@H](CO)O[C@@H]1Cc1cc(C2CCN(C(C)=O)CC2)on1 , strictly under 800 nM or not?
Response: fulfilled

Request: Input CO[C@@H]1[C@@H](n2cc(-c3cc(F)c(F)c(F)c3)nn2)[C@@H](O)[C@@H](CO)O[C@@H]1Cc1cc(C2CCC(NC(=O)[C@@H](NC(=O)OC(C)(C)C)C(C)C)CC2)no1 (stereo partly drawn) ; condition: IC50 strictly below 800 nM. Does it hold?
Response: not fulfilled
